system: MDA-MB-231; assay: Cytotoxicity against human MDA-MB-231 cells assessed as growth inhibition after 48 hrs by MTT assay; format: functional, cell-based; settings: MDA-MB-231, 48 h
Kindly state IC50 for each of the entries shown.

Known results for compounds:
(Q) Provide only the value of recorded IC50 for C=C[C@@H]1C[C@H](C)C[C@H](C)C1c1c(O)ccn(O)c1=O (some centres undefined)
(A) 1.63 µM

(Q) Provide only the value of recorded IC50 for `C/C=C\C[C@@H](C)C[C@@H](C)/C(O)=C1/C(=O)N/C(=C\c2ccc(O)cc2)C1=O`
(A) > 40 µM

(Q) Provide only the value of recorded IC50 for `C/C=C\C[C@H](C)C[C@H](C)/C(O)=C1/C(=O)N[C@H]([C@H](O)c2ccc(O)cc2)C1=O`
(A) > 40 µM

(Q) Provide only the value of recorded IC50 for `C/C=C\C[C@H](C)C[C@H](C)/C(O)=C1/C(=O)N[C@@H]([C@@H](O)c2ccc(O)cc2)C1=O`
(A) > 40 µM

(Q) Provide only the value of recorded IC50 for `Cc1cc(O)c2oc(=O)c(O)c(-c3ccc(O)cc3)c2c1`
(A) > 40 µM

(Q) Provide only the value of recorded IC50 for CC(C)(O)[C@@H]1C[C@@H](O)[C@]2(C)[C@H](CC[C@@]3(C)[C@H]2CC[C@H]2Cc4c([nH]c5ccccc45)[C@@]23C)O1 [TERPENDOLE E]
(A) 39.2 µM

(Q) Provide only the value of recorded IC50 for CC1Oc2c(-c3ccc(O)cc3)c[nH]c(=O)c2[C@@H]2[C@@H](C)C[C@@H](C)C[C@@H]12 (some centres undefined)
(A) > 40 µM

(Q) Provide only the value of recorded IC50 for `C/C=C\C[C@H](C)C[C@H](C)/C(O)=C1/C(=O)N/C(=C\c2ccc(O)cc2)C1=O`
(A) > 40 µM

Next compound, IC50 to be filled in.
(Q) Provide only the value of recorded IC50 for C=C[C@@H]1C[C@H](C)C[C@H](C)C1c1c(O)cc[nH]c1=O (some centres undefined)
(A) > 40 µM

----------
Kindly state IC50 for each of the entries shown.
tested on: K562; assay: Cytotoxicity against human K562 cells assessed as growth inhibition after 48 hrs by MTT assay; type: functional, cell-based; details: K562, 48 h

(Q) Provide IC50, recorded with K562, of CC1Oc2c(-c3ccc(O)cc3)c[nH]c(=O)c2[C@@H]2[C@@H](C)C[C@@H](C)C[C@@H]12 (stereo not given in full)
(A) > 40 µM

(Q) Provide IC50, recorded with K562, of C=C[C@@H]1C[C@H](C)C[C@H](C)C1c1c(O)cc[nH]c1=O (stereo not given in full)
(A) > 40 µM

(Q) Provide IC50, recorded with K562, of `Cc1cc(O)c2oc(=O)c(O)c(-c3ccc(O)cc3)c2c1`
(A) > 40 µM

(Q) Provide IC50, recorded with K562, of `C/C=C\C[C@H](C)C[C@H](C)/C(O)=C1/C(=O)N/C(=C\c2ccc(O)cc2)C1=O`
(A) > 40 µM

(Q) Provide IC50, recorded with K562, of `C/C=C\C[C@H](C)C[C@H](C)/C(O)=C1/C(=O)N[C@@H]([C@@H](O)c2ccc(O)cc2)C1=O`
(A) > 40 µM

(Q) Provide IC50, recorded with K562, of `C/C=C\C[C@H](C)C[C@H](C)/C(O)=C1/C(=O)N[C@H]([C@H](O)c2ccc(O)cc2)C1=O`
(A) > 40 µM

(Q) Provide IC50, recorded with K562, of COc1cccc2c1C(=O)c1c(O)c3c(c(O)c1C2=O)C[C@@](O)(C(=O)CO)C[C@@H]3O[C@H]1C[C@H](N)[C@H](O)[C@H](C)O1 [DOXORUBICIN]
(A) 1.1 µM

(Q) Provide IC50, recorded with K562, of C=C[C@@H]1C[C@H](C)C[C@H](C)C1c1c(O)ccn(O)c1=O (stereo not given in full)
(A) 1.83 µM

Give one value of IC50 per listed molecule.
1. C/C=C\C[C@@H](C)C[C@@H](C)/C(O)=C1/C(=O)N/C(=C\c2ccc(O)cc2)C1=O
2. CC(C)(O)[C@@H]1C[C@@H](O)[C@]2(C)[C@H](CC[C@@]3(C)[C@H]2CC[C@H]2Cc4c([nH]c5ccccc45)[C@@]23C)O1 [TERPENDOLE E]

(A)
["> 40 µM", "38.7 µM"]
